- System: NCI 60-cell line panel (full panel)
- assay overview: NCI-60 SRB growth inhibition, full panel mean / MG-MID
- Assay type: cell-based, human
- test parameters: mean over NCI-60 panel; single dose 10 µM
property label: Full panel Mean GI % (%)

>>> df
                                   compound        property_label  measured_number
0  CC(=O)Nc1ccc(CNc2cccc(C(=O)/C=C/c3c[nH]cn3)c2)cc1 [Compound 5l]  Full panel Mean GI %            24.10
1  CC(=O)Nc1ccc(/C=C/C(=O)c2cccc(NCc3ccc(NC(C)=O)cc3)c2)cc1 [Compound 5g]  Full panel Mean GI %            87.48
2  O=C(/C=C/c1cccnc1)c1cccc(NCc2csc3ccccc23)c1 [Compound 5d]  Full panel Mean GI %           120.02
3  O=C(/C=C/c1c[nH]cn1)c1cccc(NCc2ccc(CO)cc2)c1 [Compound 5m]  Full panel Mean GI %            25.19
4  O=C(/C=C/c1c[nH]cn1)c1cccc(NCc2ccc3oc(=O)ccc3c2)c1 [Compound 5n]  Full panel Mean GI %            37.53

The reported numbers originate from paper PMC11003488.
